Entry source: patent US20240383915A1

Here, each record is paired with measured IC50 data.
# Tested on: SW480 cells
# assay.info: SW480 proliferation assay
# Assay type: cell-based
# measurement.context: SW480; read-out: SW480 Prolif IC50 (G12V)
metric.name: IC50

Cc1cc(N)nc(-c2c(Cl)c3c4c(nc(OC[C@@]56CCCN5C[C@H](F)C6)nc4c2F)N([C@H](C)c2cccnc2N)CCO3)c1C(F)(F)F (atropisomer, axis not shown; (aS)) [Example 48] ... 1.4 nM
Cc1cc(N)nc(-c2c(Cl)c3c4c(nc(OC[C@@]56CCCN5C[C@H](F)C6)nc4c2F)N(Cc2cccnc2N)CCO3)c1C(F)(F)F (single isomer, unassigned) [Example 42a] ... 85 nM
Cc1cc(N)nc(-c2c(Cl)c3c4c(nc(OC[C@@]56CCCN5C[C@H](F)C6)nc4c2F)N([C@H](C)c2cccnc2N)CCO3)c1C(F)(F)F (atropisomer, axis not shown; (aS)) [Example 107] ... 560 nM
Cc1cc(N)nc(-c2c(Cl)c3c4c(nc(OC[C@@]56CCCN5C[C@H](F)C6)nc4c2F)N(Cc2cccnc2N)CCO3)c1C(F)(F)F (single isomer, unassigned) [Example 42b] ... 3400 nM
